Target: T1, human lysyl hydroxylase 3 (LH3/PLOD3), wild type (human, UniProt O60568 25-738, N-linked glycosylations at Asn63 and Asn548)
T1 chain: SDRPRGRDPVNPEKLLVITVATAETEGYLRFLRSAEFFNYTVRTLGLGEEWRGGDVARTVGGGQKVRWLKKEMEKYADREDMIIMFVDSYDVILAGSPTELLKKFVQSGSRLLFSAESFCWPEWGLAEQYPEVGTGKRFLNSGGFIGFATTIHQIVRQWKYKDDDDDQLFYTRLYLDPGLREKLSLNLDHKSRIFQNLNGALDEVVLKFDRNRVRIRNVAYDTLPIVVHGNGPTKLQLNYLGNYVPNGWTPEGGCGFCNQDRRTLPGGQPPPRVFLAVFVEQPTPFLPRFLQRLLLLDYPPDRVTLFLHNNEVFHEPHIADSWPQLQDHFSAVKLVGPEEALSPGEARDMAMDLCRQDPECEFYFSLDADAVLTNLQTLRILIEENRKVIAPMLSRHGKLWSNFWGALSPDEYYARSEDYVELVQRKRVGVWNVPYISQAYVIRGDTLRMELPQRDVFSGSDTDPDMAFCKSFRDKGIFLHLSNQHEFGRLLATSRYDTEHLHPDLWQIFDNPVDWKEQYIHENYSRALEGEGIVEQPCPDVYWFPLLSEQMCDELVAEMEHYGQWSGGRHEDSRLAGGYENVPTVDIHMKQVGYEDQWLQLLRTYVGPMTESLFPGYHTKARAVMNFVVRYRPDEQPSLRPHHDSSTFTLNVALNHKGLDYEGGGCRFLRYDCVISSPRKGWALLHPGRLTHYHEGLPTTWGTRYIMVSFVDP
Assay: SPR
READOUT_LABEL: Kd (mM)

INSERT INTO results (binder, readout_label, measurement_unit, observed_measurement) VALUES
  ('GIKGIKGIKGIK', 'Kd', 'mM', 2.4),
  ('IKGIKGIKG', 'Kd', 'mM', 6.7),
  ('ARGIKGIRGFS', 'Kd', 'mM', 4.4);
